Target: 20S Proteasome (Oryctolagus cuniculus, UniProt G1T4Q9)
Sequence (G1T4Q9 60-263): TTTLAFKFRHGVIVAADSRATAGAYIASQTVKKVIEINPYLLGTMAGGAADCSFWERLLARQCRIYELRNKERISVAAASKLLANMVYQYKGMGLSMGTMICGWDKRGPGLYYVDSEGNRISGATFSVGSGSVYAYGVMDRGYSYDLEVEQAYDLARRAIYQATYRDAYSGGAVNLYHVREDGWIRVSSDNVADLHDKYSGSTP
pIC50: −log10 of the molar value.
Recorded measurements of pIC50, one per entry
Reported Endpoint: pIC50

>  <Molecule>
CCNC(=O)C(=O)C(Cc1ccc(Cl)cc1)NC(=O)C(NC(=O)C(Cc1cccc2ccccc12)NC(=O)CCCCc1cccs1)C(C)C (stereo not drawn)

>  <Qualifier Operator>
>

>  <Value Observed>
8.00

$$$$
>  <Molecule>
CCNC(=O)C(=O)C(Cc1ccc(Cl)cc1)NC(=O)C(NC(=O)C(Cc1ccccc1)NC(=O)CCc1cccs1)C(C)C (stereo not drawn)

>  <Qualifier Operator>
=

>  <Value Observed>
7.38

$$$$
>  <Molecule>
CCNC(=O)C(=O)C(Cc1ccc(OC)cc1)NC(=O)C(NC(=O)C(CCc1ccccc1)NC(=O)CCc1cccs1)C(C)C (stereo not drawn)

>  <Qualifier Operator>
=

>  <Value Observed>
7.64

$$$$
